EXPERIMENTAL_TARGET: HIV-Integrase (Human immunodeficiency virus type 1 group M subtype B, UniProt P12497)
Construct: Recombinant integrase (0.26 ng) was incubated with the beads
PROTOCOL_TEXT: HIV-Integrase binding assay (competition with [3H]-compound I, SPA)
CONDITION_DESCRIPTION: competitive binding vs [3H]-compound I to purified integrase; Ki by Cheng and Prusoff; read-out: in vitro binding
pKi: −log10 of the molar value.
OBSERVABLE: pKi

COMPOUND	pKi
CN1CCN(c2cc(F)ccc2CNC(=O)c2nc3n(c(=O)c2O)CCOCC32CCOCC2)C1=O [Example 38]	7.30 to 8.52
Cc1nc(C)n(-c2cc(F)ccc2CNC(=O)c2nc3n(c(=O)c2O)CCOCC32CCC2)n1 [Example 11]	7.30 to 8.52
CCc1ncnn1-c1cc(F)ccc1CNC(=O)c1nc2n(c(=O)c1O)CCOCC21CCCC1 [Example 22]	7.30 to 8.52
Cc1ncn(-c2cc(F)ccc2CNC(=O)c2nc3n(c(=O)c2O)CCOCC32CCCC2)n1 [Example 21]	8.52 to 9.00
Cn1nnc(-c2cc(F)ccc2CNC(=O)c2nc3n(c(=O)c2O)CCOCC32CCCC2)n1 [Example 15]	8.52 to 9.00
Cc1nnn(-c2cc(F)ccc2CNC(=O)c2nc3n(c(=O)c2O)CCOCC3(C)C)c1C [Example 18]	7.30 to 8.52

Asked: Return pKi for the following compound: Cc1nc(C)n(-c2cc(F)ccc2CNC(=O)c2nc3n(c(=O)c2O)CCOCC3(C)C)n1 [Example 5]
Given back: 7.30 to 8.52
